tested on: Bacillus subtilis DB104 (SP-AmyQ fusion secretion); experiment: AmyQ secretion efficiency, weighted average sort bin (1 = best secretion, 10 = worst) (bin number (weighted average, 1-10)); higher = lower secretion efficiency
PARAMETER: AmyQ secretion efficiency
Enter the number alone.

- MKSKWMSGLLLVAVGFSFTQVMYHAGET: 7.02
- MKKRFSLIMMTGLLFGLTKRKKKKAFAAEK: 7.34
- MTKKAWFLPLVCVLLISGWLAPAASASWQTT: 3.5
- MHLIRAAGAVCLAVVLIAGCRFNEDQHQAEHENT: 3.89
- MRPVFPLILSAVLFLSCFFGARQTEFSASKR: 7.3

**Q:** Given MGLGKKLSVAVAASFMSLSISLPGSQAAEG , respond with its AmyQ secretion efficiency.
**A:** 2.3

**Q:** Given MHLIRAAGAVCLAVVLIAGCRKKKRKRHRAEGENT , respond with its AmyQ secretion efficiency.
**A:** 7.2

**Q:** Given MTGMLGSMLLITAGILVFFAVVVKDVFAAGL , respond with its AmyQ secretion efficiency.
**A:** 4.32

**Q:** Given MKKQIITATTAVVLGSTLFAGAQSAQSI , respond with its AmyQ secretion efficiency.
**A:** 4.07

**Q:** Given MNIKKFAKQATVLTFTTALLAGGATQAFAKKR , respond with its AmyQ secretion efficiency.
**A:** 3.43

**Q:** Given MKQIMIFLTSFMLLAMTGQTTLAKDV , respond with its AmyQ secretion efficiency.
**A:** 3.1

**Q:** Given MRKKRLLAGALTATVLFGTCAVDVPGIISPKTAEAASQ , respond with its AmyQ secretion efficiency.
**A:** 1.23
